target: human DLL3 endogenously expressed on SHP77 and NCI-H82 cells (human) (UniProt Q9NYJ7); test: FACS SHP77 cells, 0.00128 nM
Sequence (Q9NYJ7 27-618): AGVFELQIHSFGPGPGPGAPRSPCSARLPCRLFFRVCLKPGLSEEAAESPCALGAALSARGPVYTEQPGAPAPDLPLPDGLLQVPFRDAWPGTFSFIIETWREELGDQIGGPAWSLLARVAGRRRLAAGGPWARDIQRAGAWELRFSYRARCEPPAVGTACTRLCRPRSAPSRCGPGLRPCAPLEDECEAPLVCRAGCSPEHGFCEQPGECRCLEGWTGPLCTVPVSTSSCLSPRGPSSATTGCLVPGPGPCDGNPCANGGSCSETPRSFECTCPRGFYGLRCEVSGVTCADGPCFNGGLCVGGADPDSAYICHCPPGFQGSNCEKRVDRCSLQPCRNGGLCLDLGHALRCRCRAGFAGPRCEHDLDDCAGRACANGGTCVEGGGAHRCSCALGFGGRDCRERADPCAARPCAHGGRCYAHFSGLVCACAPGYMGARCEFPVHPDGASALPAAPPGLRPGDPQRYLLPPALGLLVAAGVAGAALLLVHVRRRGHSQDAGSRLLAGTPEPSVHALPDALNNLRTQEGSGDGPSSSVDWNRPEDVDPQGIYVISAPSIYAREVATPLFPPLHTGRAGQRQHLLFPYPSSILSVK
Quantity Kind: MFI (MFI)
All answers are understood in MFI, so give the number only.

Form field: reported MFI of mab014 scFv-hFc (Fc fusion, not shown: small tags and cut ends; a dimerising Fc or GST) scFv (part 1 of 2): DIQMTQSSSSFSVSLGDRVTITCKASEDIYNRLAWYQQKPGNTPRLLISGATSLETGVPSRFSGSGSGKDFTLSITSLQTEDVATYYCQQYWSLPWTFGGGTKLEIK scFv (part 2 of 2): EVQLHQSGPELVKPGTSVKISCKASGYTFTDYYMNWVKQSHGKSLEWIGDINPNHGDTGYNQKFTGKATLTVDKSSSTAYMELRSLTSEDSAVYYCARNFFYYGTTYGWYFDVWGTGTTVTVSS
96

Tell me the measured MFI of mab002 scFv-hFc (Fc fusion, not shown: small tags and cut ends; a dimerising Fc or GST) scFv (part 1 of 2): QIVLTQSPAIMSASPGEKVTMTCSARSSVSYMQWYQQKSGTSPKRWIYDTSKLASGVPARFSGSGSGTSYSLTISTMEAEDAATYYCQQWSSDPPTFGGGTKLEIK scFv (part 2 of 2): QIQLVQSGPELKKPGETVKISCKASGYTFTNYGMNWLKQAPGKGLKWMGWINTYTGESTYADDFKGRFAFSLETSASTVYLQINNLKNEDMATYFCARMGDGYYDFTMDYWGQGTSVTVSS , please.
197

State the recorded MFI for this entry: mab005 scFv-hFc (Fc fusion, not shown: small tags and cut ends; a dimerising Fc or GST) scFv (part 1 of 2): DIVLTQSPATLSVTPGDSVSLSCRASQSVSNDLHWYQQKSHESPRLLIKYASQSISGIPSRFSGSGSGTDFTLTINSVETEDFGMYFCQQSNNWPYTFGGGTKLEMK scFv (part 2 of 2): QVQLQQSGAELMKPGASVTLSCKATGYTLPGYWIEWVKQRPGHGLEWIGEILPGSSSANYNEKFKGKATFTADTSSNTAYMQLSSLTTEDSAIYYCASTYGTSLDYWGQGTTLTVSS
117
